# study system: 5-hydroxytryptamine receptor 6 (Homo sapiens, UniProt P50406)
# Sequence (P50406 whole entry): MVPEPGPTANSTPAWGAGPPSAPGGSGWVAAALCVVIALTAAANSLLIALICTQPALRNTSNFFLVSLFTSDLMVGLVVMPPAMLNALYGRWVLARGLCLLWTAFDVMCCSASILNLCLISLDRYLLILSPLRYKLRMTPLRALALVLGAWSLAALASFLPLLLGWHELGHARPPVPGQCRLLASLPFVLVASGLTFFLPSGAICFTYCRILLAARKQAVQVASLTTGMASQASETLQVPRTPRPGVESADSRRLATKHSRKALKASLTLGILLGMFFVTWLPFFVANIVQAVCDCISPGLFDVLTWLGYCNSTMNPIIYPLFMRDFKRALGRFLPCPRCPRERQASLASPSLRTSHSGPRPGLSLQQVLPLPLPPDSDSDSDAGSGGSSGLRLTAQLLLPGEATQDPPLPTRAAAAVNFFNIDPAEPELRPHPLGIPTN
# experiment summary: Binding affinity against 5-hydroxytryptamine 6 receptor
endpoint label: Ki (nM)
Answer in nM, number only, no unit symbol.

## Task Item c1ccc2c(N3CCNCC3)cccc2c1 has what recorded Ki?
## Result 100

====

# study system: 5-hydroxytryptamine receptor 6 (Homo sapiens)
# experiment summary: Binding affinity against 5 Hydroxy tryptamine 6 receptor
endpoint label: log10 of Ki (log10 of the value in nM)
Heads up, the numbers here are log10 of Ki in nM units.

Some molecules with known log10 of Ki results, for comparison:
> print(dat)
                              line.notation  quantitative.readout
1                CCc1cc(N2CCNCC2)c2ccccc2c1                  1.32
2       c1ccc(-c2ccc(N3CCNCC3)c3ccccc23)cc1                  2.28
3  Nc1ccc(S(=O)(=O)c2ccc(N3CCNCC3)c3ccccc23)cc1                 -0.05
4                Brc1ccc(N2CCNCC2)c2ccccc12                  1.73

## Task Item COc1ccccc1N1CCNCC1 has what recorded log10 of Ki?
## Result 0.08

## Task Item Nc1ccc(S(=O)(=O)c2cccc3ccccc23)cc1 has what recorded log10 of Ki?
## Result 1.53

## Task Item O=S(=O)(c1ccccc1)c1ccc(N2CCNCC2)c2ccccc12 has what recorded log10 of Ki?
## Result 0.58

## Task Item O=S(=O)(c1ccc(NO)cc1)c1cccc2ccccc12 has what recorded log10 of Ki?
## Result 1.80

====

# study system: 5-hydroxytryptamine receptor 6 (Homo sapiens, UniProt P50406)
# experiment summary: Binding affinity against 5-hydroxy tryptamine 6 receptor
endpoint label: Ki (nM)
Answer in nM, number only, no unit symbol.

## Task Item c1ccc2c(N3CCNCC3)cccc2c1 has what recorded Ki?
## Result 120

====

Ki values by entry
# study system: 5-hydroxytryptamine receptor 6 (Homo sapiens)
# experiment summary: Binding affinity against 5 Hydroxy tryptamine 6 receptor

> print(dat)
                              line.notation   result
1  Nc1ccc(S(=O)(=O)c2cc(Br)nc(N3CCNCC3)c2)cc1  ~0.1 nM
2  Nc1ccc(S(=O)(=O)c2cc(Br)nc(N3CCCC3)c2)cc1    ~1 nM
3     O=C(c1ccccc1)c1ccc(N2CCNCC2)c2ccccc12    57 nM
4       c1ccc(-c2cc(N3CCNCC3)c3ccccc3c2)cc1   9.3 nM

Okay, now this compound:
## Task Lab note: need Ki with 5-hydroxytryptamine receptor 6 (Homo sapiens) for entry c1ccc(Cc2ccc(N3CCNCC3)c3ccccc23)cc1 , please look it up.
## Result 35 nM
